- System: Duck hepatitis B virus
- Method summary: Antiviral activity against duck HBV in primary duck hepatocytes
- Format: functional, organism-based
- Reported conditions: Hepatocyte
pEC50: −log10 of the molar value.
Property measured: pEC50

• O=c1[nH]c(=O)n(COC(CO)CO)cc1/C=C/Br = 5.52
• O=c1[nH]c(=O)n(COC(CO)CO)cc1F = < 4.37
• Nc1cn(COC(CO)CO)c(=O)[nH]c1=O = < 4.36
• Cc1cc(=O)[nH]c(=O)n1COC(CO)CO = < 4.36

====

- Test system: Hepatitis C virus
- Method summary: Antiviral activity against hepatitis C virus
- Type: functional, organism-based, Hepacivirus hominis
Property measured: EC50 (µM)

* Nc1nc(=O)n(COC(CO)CO)cc1F | 132

====

- Test system: Vero
- Method summary: Cytotoxicity against Vero cell line
- Assay type: functional
- Reported conditions: Chlorocebus sabaeus
Property measured: CC50

* Nc1nc(=O)n(COC(CO)CO)cc1F | > 429 µM
* Cc1nn(COC(CO)CO)c(=O)[nH]c1=O | > 432 µM
* O=c1cnn(COC(CO)CO)c(=O)[nH]1 | > 460 µM
* O=c1[nH]c(=O)n(COC(CO)CO)cc1/C=C/Br | > 311 µM
* O=c1[nH]c(=O)n(COC(CO)CO)cc1CO | > 406 µM
* CCc1cn(COC(CO)CO)c(=O)[nH]c1=O | > 410 µM
* Cc1c(I)c(=O)[nH]c(=O)n1COC(CO)CO | > 280 µM
* COc1nc(=O)n(COC(CO)CO)cc1Br | > 323 µM
* Cc1cn(COC(CO)CO)c(=O)[nH]c1=O | > 434 µM
* O=c1[nH]c(=O)n(COC(CO)CO)cc1CCO | > 384 µM
* Cc1nn(COC(CO)CO)c(=S)[nH]c1=O | > 404 µM
* Nc1cn(COC(CO)CO)c(=O)[nH]c1=O | > 432 µM
* O=c1[nH]c(=O)n(COC(CO)CO)cc1Cl | > 400 µM
* O=c1[nH]c(=O)n(COC(CO)CO)cc1[N+](=O)[O-] | > 383 µM
* O=c1ccn(COC(CO)CO)c(=O)[nH]1 | > 462 µM
* O=c1[nH]c(=O)n(COC(CO)CO)cc1Br | > 338 µM
* Cc1cc(=O)[nH]c(=O)n1COC(CO)CO | > 434 µM
* Nc1ccn(COC(CO)CO)c(=O)n1 | > 465 µM
* Cc1c(Br)c(=O)[nH]c(=O)n1COC(CO)CO | > 324 µM
* O=c1[nH]c(=O)n(COC(CO)CO)cc1F | > 427 µM

====

- Tested on: Hepatitis B virus
- Method summary: Antiviral activity against HBV L180M/M204V mutant transfected in D88 cell line
- Type: functional, organism-based
Overview of recorded EC50 for various compounds
Property measured: EC50

- Cc1c(Br)c(=O)[nH]c(=O)n1COC(CO)CO: > 32.4 µM
- O=c1[nH]c(=O)n(COC(CO)CO)cc1Cl: > 40 µM

====

- Tested on: HepG2
- Method summary: Cytotoxicity against human HepG2 cell line
- Format: functional
Overview of recorded CC50 for various compounds
Property measured: CC50

- O=c1[nH]c(=O)n(COC(CO)CO)cc1F: > 427 µM
- Cc1cc(=O)[nH]c(=O)n1COC(CO)CO: > 434 µM
- Cc1c(Br)c(=O)[nH]c(=O)n1COC(CO)CO: > 324 µM
- O=c1[nH]c(=O)n(COC(CO)CO)cc1/C=C/Br: > 311 µM
- Cc1nn(COC(CO)CO)c(=S)[nH]c1=O: > 404 µM
- O=c1[nH]c(=O)n(COC(CO)CO)cc1[N+](=O)[O-]: > 383 µM
- Cc1cn(COC(CO)CO)c(=O)[nH]c1=O: > 434 µM
- Nc1ccn(COC(CO)CO)c(=O)n1: > 465 µM
- Cc1nn(COC(CO)CO)c(=O)[nH]c1=O: > 432 µM
- O=c1cnn(COC(CO)CO)c(=O)[nH]1: > 460 µM
- CCc1cn(COC(CO)CO)c(=O)[nH]c1=O: > 410 µM
- COc1nc(=O)n(COC(CO)CO)cc1Br: > 323 µM
- O=c1[nH]c(=O)n(COC(CO)CO)cc1CCO: > 384 µM
- O=c1[nH]c(=O)n(COC(CO)CO)cc1Cl: > 400 µM
- O=c1[nH]c(=O)n(COC(CO)CO)cc1Br: > 338 µM
- O=c1ccn(COC(CO)CO)c(=O)[nH]1: > 462 µM
- Cc1c(I)c(=O)[nH]c(=O)n1COC(CO)CO: > 280 µM
- O=c1[nH]c(=O)n(COC(CO)CO)cc1CO: > 406 µM
- Nc1nc(=O)n(COC(CO)CO)cc1F: > 429 µM
- Nc1cn(COC(CO)CO)c(=O)[nH]c1=O: > 432 µM
